Answer each item with its documented GI50.
# Test system: OVCAR-8 ovarian
# Protocol details: NCI tumour cell line growth inhibition, 48 h

Measured GI50 (OVCAR-8 ovarian), entry CCOC(=O)c1ccc(NC(=S)NC(=O)c2ccc(NC(=O)C(C)C)cc2OC)cc1 : 16.4 µM

Item COc1ccc2[nH]c(O)c(N=NC(=O)COc3ccc(NC(=O)Nc4ccc(Cl)cc4)cc3)c2c1 was tested on OVCAR-8 ovarian; the reported GI50 is 10.5 µM

The value of GI50 recorded for CC[C@]12C=CCN3CC[C@@]4(c5ccc(OC)cc5N(C)[C@H]4[C@@](O)(C(=O)OC)[C@@H]1OC(=O)CCCC[P+](C1CCCCC1)(C1CCCCC1)C1CCCCC1)[C@@H]32 when tested on OVCAR-8 ovarian reads 2.93 µM

Lab entry: OVCAR-8 ovarian assay, molecule CCOc1ccc2ncc(C#Cc3cncc(C(=O)Nc4ccc(CN5CCN(C)CC5)c(C(F)(F)F)c4)c3)n2n1 , GI50 = 3.21 µM

###

# System: MDA-MB-468 breast
# Protocol details: NCI tumour cell line growth inhibition, 48 h
Assay readout: GI50

# GI50 of CCN(CC)CCN1c2nc3ccccc3cc2Sc2cc3ccccc3nc21 = 1790 nM

Just so you know, measured GI50 for O=C(/C=C/c1ccccn1)c1ccc(OCc2nnc(-c3ccc(Cl)cc3)o2)cc1 came out at 1710 nM

Entry COc1ccccc1[As]=[As]c1ccccc1OC (stereo not given) — recorded GI50 = 19.9 nM

The recorded GI50 for C=CCNC1=C2C[C@@H](C)C[C@H](OC)[C@H](O)[C@@H](C)/C=C(\C)[C@H](OC(N)=O)[C@@H](OC)/C=C\C=C(/C)C(=O)NC(=CC1=O)C2=O is 209 nM

Given item NCCCNc1nc2ccccc2c2c(=O)c3cccc(Cl)c3sc12 , the value recorded as its GI50 is 837 nM

###

# System: NCI-H226 lung
# Protocol details: NCI tumour cell line growth inhibition, 48 h; in the data active = GI50 below about 0.43 µM; inactive = the rest
Outcomes you can answer with include only these: t = active, f = inactive

INPUT: Call for entry CCOC(=O)c1ccc(NC(=S)NC(=O)c2ccc(NC(=O)C(C)C)cc2OC)cc1 :
OUTPUT: f

INPUT: How did this test come out for COc1ccc2[nH]c(O)c(N=NC(=O)COc3ccc(NC(=O)Nc4ccc(Cl)cc4)cc3)c2c1 ?
OUTPUT: f

INPUT: What did the test return for CCOc1ccc2ncc(C#Cc3cncc(C(=O)Nc4ccc(CN5CCN(C)CC5)c(C(F)(F)F)c4)c3)n2n1 ?
OUTPUT: t

INPUT: Outcome? CC[C@]12C=CCN3CC[C@@]4(c5ccc(OC)cc5N(C)[C@H]4[C@@](O)(C(=O)OC)[C@@H]1OC(=O)CCCC[P+](C1CCCCC1)(C1CCCCC1)C1CCCCC1)[C@@H]32
OUTPUT: f

###

For each entry below, report its GI50 value.
# System: MOLT-4 leukemia
# Protocol details: NCI tumour cell line growth inhibition, 48 h

Short answer for COc1ccc(-c2cc(C(=O)N=Nc3c(O)[nH]c4ccc(Br)cc34)c3ccccc3n2)cc1 : GI50 was 5.08 µM

Entry O=C(CSc1nnc(-c2ccc(-c3nc4ccc(Cl)cc4[nH]3)cc2)o1)Nc1ccccc1 ; GI50 = 8.63 µM

Field GI50 (entry CCOC(=O)c1ccc(NC(=S)NC(=O)c2ccc(NC(=O)C(C)C)cc2OC)cc1 ) reads 2.22 µM

Record CC[C@]12C=CCN3CC[C@@]4(c5ccc(OC)cc5N(C)[C@H]4[C@@](O)(C(=O)OC)[C@@H]1OC(=O)CCCC[P+](C1CCCCC1)(C1CCCCC1)C1CCCCC1)[C@@H]32 , field GI50: 1.72 µM

###

# System: MDA-MB-468 breast
# Protocol details: NCI tumour cell line growth inhibition, 48 h
Exercise: state measured GI50 for each of the molecules provided.

Lab note: measured GI50 of N#Cc1nc(C#N)c(Sc2ccccc2)c(Sc2ccccc2)c1Sc1ccccc1 was 1910 nM

// GI50 lookup, molecule = Cc1ccc(Cl)c(NS(=O)(=O)c2ccc(-c3cnc(C4CC4)o3)cc2)c1 , result: 45.2 nM

The molecule listed as COc1ccc(-c2cc(-c3ccc(Cl)cc3)nc(NCCCCNc3ccnc4cc(Cl)ccc34)n2)cc1 has a reported GI50 of 1720 nM

Field GI50 (entry c1ccc(-c2n(Cc3ccc4ccccc4c3)c3ccccc3[n+]2Cc2ccc3ccccc3c2)cc1 ) reads 134 nM

Memo: CCN(CC)c1ccc(-c2cc(-c3cc(OC)c(OC)c(OC)c3)nc(N3CCC(O)CC3)c2C#N)cc1 , reported GI50: 987 nM

###

# Test system: SF-295 CNS
# Protocol details: NCI tumour cell line growth inhibition, 48 h
Exercise: state measured TGI for each of the compounds provided.
Answer with a number only, understood to be in µM.

TGI in this record for CC[C@]12C=CCN3CC[C@@]4(c5ccc(OC)cc5N(C)[C@H]4[C@@](O)(C(=O)OC)[C@@H]1OC(=O)CCCC[P+](C1CCCCC1)(C1CCCCC1)C1CCCCC1)[C@@H]32 : 16.1

Field TGI (entry CCOC(=O)c1ccc(NC(=S)NC(=O)c2ccc(NC(=O)C(C)C)cc2OC)cc1 ) reads 45.4

Sure, the documented TGI for COc1ccc2[nH]c(O)c(N=NC(=O)COc3ccc(NC(=O)Nc4ccc(Cl)cc4)cc3)c2c1 is 20.1

// TGI value for COc1ccc(-c2cc(C(=O)N=Nc3c(O)[nH]c4ccc(Br)cc34)c3ccccc3n2)cc1 : 27.2

###

# System: UACC-257 melanoma
# Protocol details: NCI tumour cell line growth inhibition, 48 h
Could you please report measured GI50 for the items listed next?

Consider COc1ccc(-c2cc(C(=O)N=Nc3c(O)[nH]c4ccc(Br)cc34)c3ccccc3n2)cc1 . Its measured GI50 is 16.6 µM

Measured GI50 of COc1ccc2[nH]c(O)c(N=NC(=O)COc3ccc(NC(=O)Nc4ccc(Cl)cc4)cc3)c2c1 : 13.1 µM

Item: CCOC(=O)c1ccc(NC(=S)NC(=O)c2ccc(NC(=O)C(C)C)cc2OC)cc1 | GI50: 12.5 µM

Memo: O=C(CSc1nnc(-c2ccc(-c3nc4ccc(Cl)cc4[nH]3)cc2)o1)Nc1ccccc1 , reported GI50: 5.91 µM

###

# System: HOP-62 NSCLC
# Protocol details: NCI tumour cell line growth inhibition, 48 h
Assay readout: TGI (µM)
Use µM as the unit, but write only the number.

TGI recorded for this compound, CC[C@]12C=CCN3CC[C@@]4(c5ccc(OC)cc5N(C)[C@H]4[C@@](O)(C(=O)OC)[C@@H]1OC(=O)CCCC[P+](C1CCCCC1)(C1CCCCC1)C1CCCCC1)[C@@H]32 , is 13.8

Record CCOc1ccc2ncc(C#Cc3cncc(C(=O)Nc4ccc(CN5CCN(C)CC5)c(C(F)(F)F)c4)c3)n2n1 . Reported TGI: 14.4

Reported TGI for O=C(CSc1nnc(-c2ccc(-c3nc4ccc(Cl)cc4[nH]3)cc2)o1)Nc1ccccc1 was 5.54

Field TGI (entry CCOC(=O)c1ccc(NC(=S)NC(=O)c2ccc(NC(=O)C(C)C)cc2OC)cc1 ) reads 72.3

###

# System: BT-549 breast
# Protocol details: NCI tumour cell line growth inhibition, 48 h
Assay readout: GI50

// GI50 lookup, molecule = COc1ccc2[nH]c(O)c(N=NC(=O)COc3ccc(NC(=O)Nc4ccc(Cl)cc4)cc3)c2c1 , result: 12.1 µM

GI50 in this record for COc1ccc(-c2cc(C(=O)N=Nc3c(O)[nH]c4ccc(Br)cc34)c3ccccc3n2)cc1 : 27.8 µM

For record CC[C@]12C=CCN3CC[C@@]4(c5ccc(OC)cc5N(C)[C@H]4[C@@](O)(C(=O)OC)[C@@H]1OC(=O)CCCC[P+](C1CCCCC1)(C1CCCCC1)C1CCCCC1)[C@@H]32 the listed GI50 is 2.45 µM

Form: molecule = CCOC(=O)c1ccc(NC(=S)NC(=O)c2ccc(NC(=O)C(C)C)cc2OC)cc1 ; GI50 = 1.97 µM
